Molecular target: KRAS WT (Homo sapiens, UniProt P01116+P62937)
Sequence (P01116 1-169 isoform P01116-2 limits assumed): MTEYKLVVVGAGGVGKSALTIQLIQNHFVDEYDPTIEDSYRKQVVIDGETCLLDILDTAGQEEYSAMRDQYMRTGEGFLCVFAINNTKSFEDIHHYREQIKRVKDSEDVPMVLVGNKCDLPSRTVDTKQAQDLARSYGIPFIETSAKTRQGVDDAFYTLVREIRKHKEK
Sequence (P62937 whole entry): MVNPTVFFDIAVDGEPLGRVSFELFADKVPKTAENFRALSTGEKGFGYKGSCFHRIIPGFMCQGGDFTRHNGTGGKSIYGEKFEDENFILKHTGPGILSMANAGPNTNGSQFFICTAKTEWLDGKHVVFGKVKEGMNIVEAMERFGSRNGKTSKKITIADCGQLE
Experiment: Disruption of BRAF RBD interaction with Ras (FRET / MOA assay, with Cyclophilin A)
Assay type: biochemical
Settings: KRAS WT; read-out: KRAS WT FRET data IC50
pIC50: −log10 of the molar value.
readout_name: pIC50

Worked cases, answers included:
CCn1c(-c2cccnc2[C@H](C)OC)c2c3cc(ccc31)-c1csc(n1)C[C@H](NC(=O)[C@H](C(C)C)N(C)C(=O)N1CC3(CC(O)C3)C1)C(=O)N1CCC[C@H](N1)C(=O)OCC(C)(C)C2 (atropisomer, axis not shown) : 6.00 to 7.00
CCn1c(-c2cccnc2[C@H](C)OC)c2c3cc(ccc31)-c1csc(n1)C[C@H](NC(=O)[C@H](C(C)C)N(C)C(=O)N1CCN(C)C3(CC3)C1)C(=O)N1CCC[C@H](N1)C(=O)OCC(C)(C)C2 : 6.00 to 7.00

// returns pIC50 for CCn1c(-c2cccnc2[C@H](C)OC)c2c3cc(ccc31)-c1csc(n1)C[C@H](NC(=O)[C@H](C(C)C)N(C)C(=O)N1CCCC13CCOCC3)C(=O)N1CCC[C@H](N1)C(=O)OCC(C)(C)C2 (atropisomer, axis not shown) with KRAS WT (Homo sapiens, UniProt P01116+P62937); value = 6.00 to 7.00

Entry CCn1c(-c2cccnc2[C@H](C)OC)c2c3cc(ccc31)-c1cc(sn1)C[C@H](NC(=O)[C@H](C(C)C)N(C)C(=O)[C@@H]1CCN(C(=O)C#CCN3CCOCC3)C1)C(=O)N1CCC[C@H](N1)C(=O)OCC(C)(C)C2 : pIC50 on KRAS WT (Homo sapiens, UniProt P01116+P62937) = < 5.00

* * *

The following molecules are shown together with reported IC50 values.
Molecular target: KRAS WT (Homo sapiens, UniProt P01116+P62937)
Assay: Disruption of BRAF RBD interaction with Ras (FRET / MOA assay, with Cyclophilin A)
Assay type: biochemical
Conditions: KRAS WT; read-out: KRAS WT FRET data IC50
Text: This protocol may also be executed substituting other Ras proteins or nucleotides. The purpose of this biochemical assay was to measure the ability of test compounds to facilitate ternary complex formation between a nucleotide-loaded K-Ras isoform and Cyclophilin A; the resulting ternary complex disrupts binding to a BRAF^RBD construct, inhibiting K-Ras signaling through a RAF effector. Data is reported as IC50 values. […]

Recorded results for 5 molecules are shown here.
C=CC(=O)N1CC[C@H](C(=O)N(C)[C@H](C(=O)N[C@H]2Cc3cc(O)cc(c3)-c3ccc4c(c3)c(c(-c3ccc(CN5CCCC5)cc3)n4CC)CC(C)(C)COC(=O)[C@@H]3CCCN(N3)C2=O)C(C)C)C1 [Example A010] : 1 to 10 µM
CCn1c(-c2cnccc2COC)c2c3cc(ccc31)-c1cc(O)cc(c1)C[C@H](NC(=O)[C@H](C(C)C)N(C)C(=O)[C@H]1CCOC1)C(=O)N1CCC[C@H](N1)C(=O)OCC(C)(C)C2 [Example A26] : 0.1 to 1 µM
CCn1c(-c2cccnc2[C@H](C)OC)c2c3cc(ccc31)-c1csc(n1)C[C@H](NC(=O)[C@H](C(C)C)N(C)C(=O)N1CCOCC1)C(=O)N1CCC[C@H](N1)C(=O)OCC(C)(C)C2 (atropisomer, axis not shown) [Example A372] : 0.01 to 0.1 µM
CCn1c(-c2cccnc2[C@H](C)OC)c2c3cc(ccc31)-c1csc(n1)C[C@H](NC(=O)[C@H](C(C)C)N(C)C(=O)N1CC(OC(F)F)C1)C(=O)N1CCC[C@H](N1)C(=O)OCC(C)(C)C2 (atropisomer, axis not shown) [Example A302] : 0.1 to 1 µM
CCn1c(-c2cccnc2[C@H](C)OC)c2c3cc(ccc31)-c1cc(O)cc(c1)C[C@H](NS(=O)(=O)N1CCN(C)CC1)C(=O)N1CCC[C@H](N1)C(=O)OCC(C)(C)C2 (racemic) [Example A193] : > 10 µM

Value of IC50 reported for the molecule CCn1c(-c2cccnc2[C@H](C)OC)c2c3cc(ccc31)-c1csc(n1)C[C@H](NC(=O)[C@H](C(C)C)N(C)C(=O)N(C)[C@@H]1CCCN(C)C1)C(=O)N1CCC[C@H](N1)C(=O)OCC(C)(C)C2 [Example A587] is 0.1 to 1 µM

In plain terms, C=CC(=O)N1CC[C@H](C(=O)N(C)[C@H](C(=O)N[C@H]2Cc3cc(O)cc(c3)-c3ccc4c(c3)c(c(-c3cccnc3)n4C3CC3)CC(C)(C)COC(=O)[C@@H]3CCCN(N3)C2=O)C(C)C)C1 [Example A160] has a documented IC50 of > 10 µM

get_value(item= C=CC(=O)N1CC[C@H](C(=O)N(C)[C@H](C(=O)N[C@H]2Cc3cc(cc(O)c3F)-c3ccc4c(c3)c(c(-c3ccccc3CCOC)n4CC)CC(C)(C)COC(=O)[C@@H]3CCCN(N3)C2=O)C(C)C)C1 [Example A009] , readout=IC50) returns > 10 µM

Form: molecule = CCn1c(-c2cccnc2[C@H](C)OC)c2c3cc(ccc31)-c1cc(O)cc(c1)C[C@H](NS(=O)(=O)c1cnc[nH]1)C(=O)N1CCC[C@H](N1)C(=O)OCC(C)(C)C2 (racemic) [Example A192] ; IC50 = > 10 µM

* * *

Biological target: KRAS G12C (Homo sapiens, UniProt P01116+P62937, G12C)
Sequence (P01116 1-169 isoform P01116-2 G12C limits assumed): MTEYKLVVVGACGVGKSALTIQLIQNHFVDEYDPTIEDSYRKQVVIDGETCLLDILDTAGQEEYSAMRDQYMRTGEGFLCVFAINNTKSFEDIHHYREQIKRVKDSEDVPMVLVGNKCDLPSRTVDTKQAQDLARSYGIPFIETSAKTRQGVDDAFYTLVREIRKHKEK
Sequence (P62937 whole entry): as the sequence (P62937 whole entry) above
Assay: Ras-Raf disruption / FRET / MOA assay (BRAF RBD)
Format: biochemical
Conditions: Ras-Raf disruption, with Cyclophilin A; read-out: KRAS G12C FRET data IC50
// values below are reported IC50

CCn1c(-c2cccnc2[C@H](C)OC)c2c3cc(ccc31)-c1cc(O)cc(c1)C[C@H](NC(=O)[C@H](C(C)C)N(C)C(=O)N1C[C@@H]3[C@H]1CCN3C(=O)[C@@H]1CN1)C(=O)N1CCC[C@H](N1)C(=O)OCC(C)(C)C2 (atropisomer, axis not shown) : 10 to 100 nM
CCn1c(-c2cccnc2[C@H](C)OC)c2c3cc(ccc31)-c1cccc(c1)C[C@H](NC(=O)[C@H](C(C)C)N(C)C(=O)[C@H]1CCN(C(=O)[C@H]3CN3)C1)C(=O)N1CCC[C@H](N1)C(=O)OCC(C)(C)C2 : 10 to 100 nM
CCn1c(-c2cccnc2[C@H](C)OC)c2c3cc(ccc31)-c1csc(n1)C[C@H](NC(=O)[C@H](C(C)C)N(C)C(=O)N(C)CCN(C)C(=O)[C@H]1CN1)C(=O)N1CCC[C@H](N1)C(=O)OCC(C)(C)C2 (atropisomer, axis not shown) : 10 to 100 nM
CCn1c(-c2cccnc2[C@H](C)OC)c2c3cc(ccc31)-c1cc(O)cc(c1)C[C@H](NC(=O)[C@H](C(C)C)N1CC[C@@]3(CCN(C(=O)[C@H]4CN4)C3)C1=O)C(=O)N1CCC[C@H](N1)C(=O)OCC(C)(C)C2 : < 10 nM
CCn1c(-c2cccnc2[C@H](C)OC)c2c3cc(ccc31)-c1cc(O)cc(c1)C[C@H](NC(=O)[C@H](C(C)C)N(C)C(=O)[C@H]1CCN(C(=O)[C@@H]3N[C@@H]3C3CC3)C1)C(=O)N1CCC[C@H](N1)C(=O)OCC(C)(C)C2 (atropisomer, axis not shown) : < 10 nM

# input for lookup
So, CCn1c(-c2cccnc2[C@H](C)OC)c2c3cc(ccc31)-c1cc(O)cc(c1)C[C@H](NC(=O)[C@H](C(C)C)N1CC[C@@]3(CCN(C(=O)[C@@H]4N[C@@H]4C4CC4)C3)C1=O)C(=O)N1CCC[C@H](N1)C(=O)OCC(C)(C)C2 ? Its IC50 was 10 to 100 nM

* * *

Target: KRAS G13D (Homo sapiens, UniProt P01116+P62937, G13D)
Sequence (P01116 1-169 isoform P01116-2 G13D limits assumed): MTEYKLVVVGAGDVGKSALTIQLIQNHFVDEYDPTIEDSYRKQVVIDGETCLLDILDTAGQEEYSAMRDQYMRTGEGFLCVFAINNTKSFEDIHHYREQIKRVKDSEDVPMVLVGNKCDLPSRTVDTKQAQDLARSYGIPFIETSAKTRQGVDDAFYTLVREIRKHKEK
Sequence (P62937 whole entry): as the sequence (P62937 whole entry) above
Experiment: Ras-Raf disruption / FRET / MOA assay (BRAF RBD)
Assay type: biochemical
Conditions: Ras-Raf disruption, with Cyclophilin A; read-out: KRAS G13D FRET data IC50
readout_name: IC50

CCn1c(-c2cccnc2[C@H](C)OC)c2c3cc(ccc31)-c1cc(O)cc(c1)C[C@H](NC(=O)[C@H](C(C)C)N(C)C(=O)N1CC[C@@H](N(C)C(=O)[C@H]3CN3)C1)C(=O)N1CCC[C@H](N1)C(=O)OCC(C)(C)C2 (atropisomer, axis not shown) : 0.1 to 1 µM
CCn1c(-c2cccnc2[C@H](C)OC)c2c3cc(ccc31)-c1cc(O)cc(c1)C[C@H](NC(=O)[C@H](C(C)C)N(C)C(=O)[C@H]1CCN(C(=O)[C@H]3CN3)C1)C(=O)N1CCC[C@H](N1)C(=O)OCC(C)(C)C2 (single isomer, unassigned) [Example 43B] : 1 to 10 µM
CCn1c(-c2cccnc2[C@H](C)OC)c2c3cc(ccc31)-c1csc(n1)C[C@H](NC(=O)[C@H](C(C)C)N(C)C(=O)N1CC[C@@H](N(C)C(=O)[C@H]3CN3)C1)C(=O)N1CCC[C@H](N1)C(=O)OCC(C)(C)C2 (atropisomer, axis not shown) : 0.1 to 1 µM

Reading of IC50 for CCn1c(-c2cccnc2[C@H](C)OC)c2c3cc(ccc31)-c1cc(O)cc(c1)C[C@H](NC(=O)[C@H](C(C)C)N(C)C(=O)C1CN(S(=O)(=O)[C@H]3CN3C)C1)C(=O)N1CCC[C@H](N1)C(=O)OCC(C)(C)C2 (single isomer, unassigned) with KRAS G13D (Homo sapiens, UniProt P01116+P62937, G13D): 0.1 to 1 µM

Field IC50 (KRAS G13D (Homo sapiens, UniProt P01116+P62937, G13D)), entry CCn1c(-c2cccnc2[C@H](C)OC)c2c3cc(ccc31)-c1cccc(c1)C[C@H](NC(=O)[C@H](C(C)C)N(C)C(=O)[C@H]1CC[C@H](N=C=NC(C)(C)C)C1)C(=O)N1CCC[C@H](N1)C(=O)OCC(C)(C)C2 : > 10 µM

Recorded IC50 for CCn1c(-c2cccnc2[C@H](C)OC)c2c3cc(ccc31)-c1csc(n1)C[C@H](NC(=O)[C@H](C(C)C)N(C)C(=O)N(C)[C@H]1CCN(C(=O)[C@@H]3CN3)C1)C(=O)N1CCC[C@H](N1)C(=O)OCC(C)(C)C2 (atropisomer, axis not shown) on KRAS G13D (Homo sapiens, UniProt P01116+P62937, G13D) was 1 to 10 µM

# value of IC50, KRAS G13D (Homo sapiens, UniProt P01116+P62937, G13D), item CCn1c(-c2cccnc2[C@H](C)OC)c2c3cc(ccc31)-c1cc(O)cc(c1)C[C@H](NC(=O)[C@H](C(C)C)N(C)C(=O)C1CCN(C(=O)[C@@H]3CN3)CC1)C(=O)N1CCC[C@H](N1)C(=O)OCC(C)(C)C2 = 0.01 to 0.1 µM
